Numbers sourced from paper PMC8245912.

pKi: −log10 of the molar value.
MDM2‒P53 (Homo sapiens, UniProt Q00987) data, read-out pKi
outcome measure: pKi

compound | target desc | outcome measure | val
CCOc1cc(C(C)(C)C)ccc1C1=N[C@@H](c2ccc(Cl)cc2)[C@@H](c2ccc(Cl)cc2)N1C(=O)N1CCN(C(=O)CCCCCC(=O)N2CCN(C(=O)N3C(c4ccc(C(C)(C)C)cc4OCC)=N[C@@H](c4ccc(Cl)cc4)[C@H]3c3ccc(Cl)cc3)CC2)CC1 (relative stereo) [Compound 10a] | MDM2‒P53 (Homo sapiens, UniProt Q00987) | pKi | 6.19
CCOc1cc(C(C)(C)C)ccc1C1=N[C@@H](c2ccc(Cl)cc2)[C@@H](c2ccc(Cl)cc2)N1C(=O)N1CCN(CC(=O)NCCOCCNC(=O)CN2CCN(C(=O)N3C(c4ccc(C(C)(C)C)cc4OCC)=N[C@@H](c4ccc(Cl)cc4)[C@H]3c3ccc(Cl)cc3)CC2=O)C(=O)C1 (relative stereo) [Compound 11c] | MDM2‒P53 (Homo sapiens, UniProt Q00987) | pKi | 4.92
CCOc1cc(C(C)(C)C)ccc1C1=N[C@@H](c2ccc(Cl)cc2)[C@@H](c2ccc(Cl)cc2)N1C(=O)N1CCN(C(=O)COCCOCC(=O)N2CCN(C(=O)N3C(c4ccc(C(C)(C)C)cc4OCC)=N[C@@H](c4ccc(Cl)cc4)[C@H]3c3ccc(Cl)cc3)CC2)CC1 (relative stereo) [Compound 10e] | MDM2‒P53 (Homo sapiens, UniProt Q00987) | pKi | 5.82

###

# Tested on: HepG2 (liver cancer) cells
# assay text: CCK-8 antiproliferative assay, HepG2
# Assay type: cell-based
# conditions: Homo sapiens, HepG2, read-out: IC50 HepG2
pIC50: −log10 of the molar value.
Measured pIC50, listed per entry for reference.
outcome measure: pIC50

compound | target desc | val
CCOc1cc(C(C)(C)C)ccc1C1=N[C@@H](c2ccc(Cl)cc2)[C@@H](c2ccc(Cl)cc2)N1C(=O)N1CCN(C(=O)CCCCCC(=O)N2CCN(C(=O)N3C(c4ccc(C(C)(C)C)cc4OCC)=N[C@@H](c4ccc(Cl)cc4)[C@H]3c3ccc(Cl)cc3)CC2)CC1 (relative stereo) [Compound 10a] | HepG2 (liver cancer) cells | 5.82
CCOc1cc(C(C)(C)C)ccc1C1=N[C@@H](c2ccc(Cl)cc2)[C@@H](c2ccc(Cl)cc2)N1C(=O)N1CCN(C(=O)CCCCCCCC(=O)N2CCN(C(=O)N3C(c4ccc(C(C)(C)C)cc4OCC)=N[C@@H](c4ccc(Cl)cc4)[C@H]3c3ccc(Cl)cc3)CC2)CC1 (relative stereo) [Compound 10b] | HepG2 (liver cancer) cells | 5.42
CCOc1cc(C(C)(C)C)ccc1C1=N[C@@H](c2ccc(Cl)cc2)[C@@H](c2ccc(Cl)cc2)N1C(=O)N1CCN(C(=O)COCCOCCOCC(=O)N2CCN(C(=O)N3C(c4ccc(C(C)(C)C)cc4OCC)=N[C@@H](c4ccc(Cl)cc4)[C@H]3c3ccc(Cl)cc3)CC2)CC1 (relative stereo) [Compound 10f] | HepG2 (liver cancer) cells | 5.92
COc1ccc(C2=N[C@@H](c3ccc(Cl)cc3)[C@@H](c3ccc(Cl)cc3)N2C(=O)N2CCNC(=O)C2)c(OC(C)C)c1 [Compound 1, Nutlin-3, reference compound] | HepG2 (liver cancer) cells | 5.05
CCOc1cc(C(C)(C)C)ccc1C1=N[C@@H](c2ccc(Cl)cc2)[C@@H](c2ccc(Cl)cc2)N1C(=O)N1CCN(CC(=O)NCCOCCNC(=O)CN2CCN(C(=O)N3C(c4ccc(C(C)(C)C)cc4OCC)=N[C@@H](c4ccc(Cl)cc4)[C@H]3c3ccc(Cl)cc3)CC2=O)C(=O)C1 (relative stereo) [Compound 11c] | HepG2 (liver cancer) cells | 4.92
CCOc1cc(C(C)(C)C)ccc1C1=N[C@@H](c2ccc(Cl)cc2)[C@@H](c2ccc(Cl)cc2)N1C(=O)N1CCN(C(=O)COCCOCC(=O)N2CCN(C(=O)N3C(c4ccc(C(C)(C)C)cc4OCC)=N[C@@H](c4ccc(Cl)cc4)[C@H]3c3ccc(Cl)cc3)CC2)CC1 (relative stereo) [Compound 10e] | HepG2 (liver cancer) cells | 5.34
CCOc1cc(C(C)(C)C)ccc1C1=N[C@@H](c2ccc(Cl)cc2)[C@@H](c2ccc(Cl)cc2)N1C(=O)N1CCN(CC(=O)NCCOCCOCCNC(=O)CN2CCN(C(=O)N3C(c4ccc(C(C)(C)C)cc4OCC)=N[C@@H](c4ccc(Cl)cc4)[C@H]3c3ccc(Cl)cc3)CC2=O)C(=O)C1 (relative stereo) [Compound 11b] | HepG2 (liver cancer) cells | 5.14
CCOc1cc(C(C)(C)C)ccc1C1=N[C@@H](c2ccc(Cl)cc2)[C@@H](c2ccc(Cl)cc2)N1C(=O)N1CCN(CC(=O)NCCOCCOCCOCCNC(=O)CN2CCN(C(=O)N3C(c4ccc(C(C)(C)C)cc4OCC)=N[C@@H](c4ccc(Cl)cc4)[C@H]3c3ccc(Cl)cc3)CC2=O)C(=O)C1 (relative stereo) [Compound 11a] | HepG2 (liver cancer) cells | 5.48
